Reference for the values: the supplement of paper PMC8728848

# TEST SYSTEM: Neu5Gc(a2-8)Neu5Gc(a2-3)Gal(b1-4)GlcNAc
# EXPERIMENT SUMMARY: glycan array binding signal (z-score within array); higher = stronger binding
# COND: glycan notation: IUPAC condensed, linker removed
This is one part of a sample in which the strongest signals are shown more often than they occur.
PROPERTY NAME: glycan array binding signal (z-score)
Give the figure only, with no unit attached.

Check out these entries, answers already filled in.
# BINDER, VAL
records = [
    ("SUN4 (Saccharomyces cerevisiae), P53616 (protein) MGSSHHHHHHSSGLVPRGSHNGSIYGDLADFSGPYEKFEDGTIPCGQFPSGQGVIPISWLDEGGWSGVENTDTSTGGSCKEGSYCSYACQPGMSKTQWPSDQPSDGRSIGGLLCKDGYLYRSNTDTDYLCEWGVDAAYVVSELSNDVAICRTDYPGTENMVIPTYVQAGDSLPLTVVDQDTYYTWQGLKTSAQYYVNNAGISVEDACVWGSSSSGVGNWAPLNFGAGSSDGVAYLSLIPNPNNGNALNFNVKIVAADDSSTVNGECIYENGSFSGGSDGCTVSVTAGKAKFVLYN", -0.415),
    ("Mermaid3 (Stilbonema majum) (protein) MGSSHHHHHHSSGLVPRGSHMAASGWLRSPQGTVVKLYRRSLSWSKADEFCKDVDGRLVVDRTADMHLFLIKNVLKEKKSRVWVGLRRTASHSRTWIWSDGTRQNEGDLDANLWLRDEPNDAAGEEECALFMYSPWEKAWGLNDYLCRGGCRNYQFICEKWIR", -0.787),
]

// below: glycan array binding signal (z-score) requested for another binder
Problem: # get_value(readout='glycan array binding signal (z-score)', item= Erv41-EDTA (Saccharomyces cerevisiae), Q04651 (protein) MKFLVNVALVFMVVYISYIYAAAPEHHHHHHDYDIPTTENLYFQGAMGYIDQQYVVDSQVRDTVQINMDIYVNTKCDWLQINVRDQTMDRKLVLEELQLEEMPFFIPYDTKVNDINEIITPELDEILGEAIPAEFREKLDTRSFFDESDPNKAHLPEFNGCHVFGSIPVNRVSGELQITAKSLGYVASRKAPLEELKFNHVINEFSFGDFYPYIDNPLDNTAQFNQDEPLTTYVYYTSVVPTLFKKLGAEVDTNQYSVNDYRYLYKDVAAKGDKMPGIFFKYNFEPLSIVVSDVRL )
Solution: 0.393
